Could you please report measured MIC for the items listed next?
Test system: Mycobacterium tuberculosis
Test: Antimycobacterial activity against Mycobacterium tuberculosis H37Rv ATCC 27294 incubated for 7 days by microplate alamar blue assay
Assay type: functional
Settings: H37Rv ATCC 27294, 168 h, time 7 day
Express your answer in µg/mL, writing the number without its unit.

Problem: Looking for the measured MIC of CON=C1CCC(CN(C)N2CCN(c3nc(=O)c4cc(C(F)(F)F)cc([N+](=O)[O-])c4s3)CC2)CC1 (stereo not given) , can you help?
Result: 0.025

Problem: Request the reported MIC associated with `O=C(NN1CCN(c2nc(=O)c3cc(C(F)(F)F)cc([N+](=O)[O-])c3s2)CC1)c1ccc(OC(F)(F)F)cc1`
Result: 0.965
